assay: Cyclic voltammetry; assay type: physicochemical; conditions: acetonitrile, scan rate 100 mV s−1, V vs. Ag/AgCl
Experimental Endpoint: Epc, cathodic wave potential (V)
Numbers only, in V.

Previously resolved entries follow.
Compound: O=[N+]([O-])c1ccc(/C=N/N=C/c2ccc(Cl)cc2)o1 [3a]
Value Unit: V
Epc, cathodic wave potential: −1.08
//
Compound: O=[N+]([O-])c1ccc(/C=N/N=C/c2ccc(Cl)cc2)s1 [3b]
Value Unit: V
Epc, cathodic wave potential: −0.96
//
Compound: O=[N+]([O-])c1ccc(/C=N/N=C/c2ccc(O)cc2)o1 [8a]
Value Unit: V
Epc, cathodic wave potential: −1.08

Okay, now this compound:
Input: For the compound O=[N+]([O-])c1ccc(/C=N/N=C/c2ccc(F)cc2)s1 [2b] , what Epc, cathodic wave potential is on record?
Output: −1.00

###

assay: Cyclic voltammetry; type: physicochemical; conditions: acetonitrile, scan rate 100 mV s−1, V vs. Ag/AgCl
Please go through the items and note down their Epa, anodic wave potential.
Give bare numbers, in V.

Solved entries:
Molecular String: O=[N+]([O-])c1ccc(/C=N/N=C/c2ccccc2)s1
Experimental Endpoint: Epa, anodic wave potential
Assay Value: −0.84
--
Molecular String: O=[N+]([O-])c1ccc(/C=N/N=C/c2ccc(O)cc2)o1
Experimental Endpoint: Epa, anodic wave potential
Assay Value: −0.82
--
Molecular String: O=[N+]([O-])c1ccc(/C=N/N=C/c2ccccc2)o1
Experimental Endpoint: Epa, anodic wave potential
Assay Value: −0.76
--
Molecular String: O=[N+]([O-])c1ccc(/C=N/N=C/c2ccc(F)cc2)s1
Experimental Endpoint: Epa, anodic wave potential
Assay Value: −0.78
--
Molecular String: Cc1ccc(/C=N/N=C/c2ccc([N+](=O)[O-])o2)cc1
Experimental Endpoint: Epa, anodic wave potential
Assay Value: −0.82
--
Molecular String: O=[N+]([O-])c1ccc(/C=N/N=C/c2ccc(OCc3ccccc3)cc2)o1
Experimental Endpoint: Epa, anodic wave potential
Assay Value: −0.78

# map each molecule to its Epa, anodic wave potential
1. O=[N+]([O-])c1ccc(/C=N/N=C/c2ccc(O)cc2)s1
2. O=[N+]([O-])c1ccc(/C=N/N=C/c2ccc(Cl)cc2)o1
3. O=[N+]([O-])c1ccc(/C=N/N=C/c2ccc(Br)cc2)o1
4. COc1ccc(/C=N/N=C/c2ccc([N+](=O)[O-])o2)cc1
5. O=[N+]([O-])c1ccc(/C=N/N=C/c2ccc(Cl)cc2)s1

Output:
["−0.82", "−0.80", "−0.80", "−0.68", "−0.74"]

Please give Epa, anodic wave potential for each item listed below.
1. O=[N+]([O-])c1ccc(/C=N/N=C/c2ccc([N+](=O)[O-])s2)cc1
2. O=[N+]([O-])c1ccc(/C=N/N=C/c2ccc(Br)cc2)s1
3. O=[N+]([O-])c1ccc(/C=N/N=C/c2ccc([N+](=O)[O-])o2)cc1
4. O=[N+]([O-])c1ccc(/C=N/N=C/c2ccc(F)cc2)o1

Output:
["−0.82", "−0.80", "−0.84", "−0.78"]

###

assay: Cyclic voltammetry; assay type: physicochemical; conditions: acetonitrile, scan rate 100 mV s−1, V vs. Ag/AgCl
So I've got a bunch of compounds here, and I need their Epa, anodic wave potential values.
Give bare numbers, in V.

Example compounds with recorded Epa, anodic wave potential:
Compound: COc1ccc(/C=N/N=C/c2ccc([N+](=O)[O-])s2)cc1
Epa, anodic wave potential (V): −0.80
--
Compound: O=Cc1ccc([N+](=O)[O-])o1 [NFA, 5-nitro-2-furaldehyde, reference compound]
Epa, anodic wave potential (V): −0.74
--
Compound: O=Cc1ccc([N+](=O)[O-])s1 [NTA, 5-nitrothiophene-2-carboxaldehyde, reference compound]
Epa, anodic wave potential (V): −0.86

Input: Dear colleague, I am looking for the recorded Epa, anodic wave potential of the following compound: Cc1ccc(/C=N/N=C/c2ccc([N+](=O)[O-])s2)cc1
Output: −0.78

###

experiment: Cyclic voltammetry; assay type: physicochemical; conditions: acetonitrile, scan rate 100 mV s−1
Experimental Endpoint: ΔEp, wave potential separation (Epa − Epc) (V)
Give bare numbers, in V.

Compound: Cc1ccc(/C=N/N=C/c2ccc([N+](=O)[O-])o2)cc1
Assay Value: 0.24
--
Compound: O=[N+]([O-])c1ccc(/C=N/N=C/c2ccc(F)cc2)o1
Assay Value: 0.28
--
Compound: COc1ccc(/C=N/N=C/c2ccc([N+](=O)[O-])s2)cc1
Assay Value: 0.24
--
Compound: O=Cc1ccc([N+](=O)[O-])o1 [NFA, 5-nitro-2-furaldehyde, reference compound]
Assay Value: 0.28
--
Compound: COc1ccc(/C=N/N=C/c2ccc([N+](=O)[O-])o2)cc1
Assay Value: 0.34

Provide ΔEp, wave potential separation (Epa − Epc) values for the following items, in order.
1. O=[N+]([O-])c1ccc(/C=N/N=C/c2ccc(F)cc2)s1
2. O=[N+]([O-])c1ccc(/C=N/N=C/c2ccc(Cl)cc2)o1
3. Cc1ccc(/C=N/N=C/c2ccc([N+](=O)[O-])s2)cc1

Output:
1. 0.22
2. 0.28
3. 0.24

###

Would you kindly list E1/2, half wave potential (E1/2 = (Epa + Epc)/2) for each of these compounds?
assay: Cyclic voltammetry; format: physicochemical; conditions: acetonitrile, scan rate 100 mV s−1, V vs. Ag/AgCl

Record excerpt, results attached:
Molecular String: Cc1ccc(/C=N/N=C/c2ccc([N+](=O)[O-])s2)cc1
Assay Value: −0.90 V
--
Molecular String: O=[N+]([O-])c1ccc(/C=N/N=C/c2ccc(Br)cc2)s1
Assay Value: −0.92 V
--
Molecular String: O=[N+]([O-])c1ccc(/C=N/N=C/c2ccc(F)cc2)s1
Assay Value: −0.89 V

Please look at the following compound next.
Input: Consider the compound shown here: O=[N+]([O-])c1ccc(/C=N/N=C/c2ccccc2)o1 What is its recorded E1/2, half wave potential (E1/2 = (Epa + Epc)/2)?
Output: −0.88 V

###

experiment: Cyclic voltammetry; format: physicochemical; details: acetonitrile, scan rate 100 mV s−1
I'd appreciate it if you could supply ΔEp, wave potential separation (Epa − Epc) values for the items below.
Numbers only, in V.

Example entries and their recorded answers appear below.
Molecule: O=[N+]([O-])c1ccc(/C=N/N=C/c2ccc([N+](=O)[O-])s2)cc1 [9b]
Assay Value: 0.24

Molecule: O=[N+]([O-])c1ccc(/C=N/N=C/c2ccc(Br)cc2)s1 [4b]
Assay Value: 0.24

Molecule: O=[N+]([O-])c1ccc(/C=N/N=C/c2ccc([N+](=O)[O-])o2)cc1 [9a]
Assay Value: 0.22

Molecule: O=[N+]([O-])c1ccc(/C=N/N=C/c2ccccc2)s1 [1b]
Assay Value: 0.22

# return ΔEp, wave potential separation (Epa − Epc) for each item in the list
1. O=[N+]([O-])c1ccc(/C=N/N=C/c2ccc(Cl)cc2)s1 [3b]
2. O=Cc1ccc([N+](=O)[O-])s1 [NTA, 5-nitrothiophene-2-carboxaldehyde, reference compound]

Output:
[0.22, 0.20]
